Source of measurements: patent US20220306729A1

# systemUnderTest: ZIKV envelope domain III ([..]), polyhistidine-AviTag, made in HEK-293-6E cells (Zika virus (KJ776791))
# methodSummary: ELISA on ZIKV EDIII (Table A)
# testContext: remark: other sources report otherwise
valueType: EC50 (µg/mL)
Please state the figure in µg/mL; there is no need to write the unit.

Use these answered entries as a reference point.
[
  {
    "binder": "Z034 (BRA112_09) (antibody, V domains shown) VH: EVQLLESGGGLAQPGGSLRLSCETSGFTFRSYGMGWVRQAPGKGLEWVSSIYISGDSTYYAASVKGRFTISRDNSKSTLYLQMDRLTAEDTAVYYCVRDRIQGGFGELYRYWGQGTLVTVSS VL: DIQMTQSPSTLSASVGDRVTMTCRASQSVNKWLAWYQQKPGKAPKLLIYETSILESGVSSRFSGSGSGTEFTLTISSLQPDDFATYYCQHYHGYPWTFGQGTKVEIK",
    "EC50 (µg/mL)": 0.0235
  },
  {
    "binder": "Z002 (MEX18_27) (antibody, V domains shown) VH: EVQLLESGGGLVQPGGSLRLSCATSGFTFSTYAMSWVRQAPGKGLEWVSSFSGVDDSTYYAESVKGRFTISRDNSKNTVYLQMTRLRAEDTAVYYCAKDRGPRGVGELFDSWGQGTLVTVSS VL: DIQMTQSPSTLSASVGDRVTMTCRASQSINRWLAWYQQKPGKAPKLLIYTTSTLKSGVPSRFSGSGSGTEFTLTISSLQPDDFATYYCQHFHSVPWTFGQGTKVEIK",
    "EC50 (µg/mL)": 0.0252
  }
]

Let's switch to this binder now.
IN: # EC50 lookup, item Z036 (BRA112_91) (antibody, V domains shown) VH: EVQLLESGGDLVQPGGSLRLSCAASGFTFSTYGMAWVRQAPGKGLEWLSSISSVDDSKYYAASVKGRFTISRDNSRNTLYLHMNSLRVDDTAVYYCAKDRIPHGLGELYANWGQGTLVTVSS VL: DIQMTQSPSTLSASVGDRVTITCRASQSISGWLAWYQQKPGKAPRLLMHKASNLYSGVPSRFSGSGSGTEFTLTISSLQPDDFATYYCQHYHSYPYTFGQGTKVEIK
OUT: 0.0172
